As an illustration, consider measured IC50 for compounds on Ich-2 enzyme (Homo sapiens, UniProt P49662).
Sequence (P49662 81-270 limits assumed): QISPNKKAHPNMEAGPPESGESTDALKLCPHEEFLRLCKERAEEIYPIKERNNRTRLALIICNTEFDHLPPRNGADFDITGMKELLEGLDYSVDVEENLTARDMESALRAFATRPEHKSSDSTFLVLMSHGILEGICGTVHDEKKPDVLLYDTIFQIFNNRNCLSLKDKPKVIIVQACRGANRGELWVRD
Sequence (P49662 290-377 limits assumed): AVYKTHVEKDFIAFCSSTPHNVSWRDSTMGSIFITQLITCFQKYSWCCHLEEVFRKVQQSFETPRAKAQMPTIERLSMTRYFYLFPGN
Where a name gives a salt, the structure may show the parent alone.
Readout Label: IC50 (µM)

Some solved entries appear below for comparison.
Cc1cc2ncn(CCN(C)C(=O)CC(C(=O)NC(C=O)CC(=O)O)C(C)C)c2cc1C (stereo not shown) = 12.7
CC(C)[C@H](CC(=O)NCCn1cnc2cc(Cl)c(Cl)cc21)C(=O)NC(C=O)CC(=O)O (stereo partly shown) = 4.02
CCOC1OC(=O)CC1NC(=O)C(CC(=O)NCCc1c[nH]c2c(C)cccc12)C(C)C (stereo not shown) = 174

[I] Cc1cc2ncn(CCNC(=O)CC(C(=O)NC(C=O)CC(=O)O)C(C)C)c2cc1C (stereo not shown) [Example 23, trifluoroacetate salt]
[II] CC(C)C(CC(=O)NCCc1cn(C)c2ccccc12)C(=O)NC(CC(=O)O)C(=O)CNS(=O)(=O)CC12CCC(CC1=O)C2(C)C (stereo not shown)
[III] CC(C)C(CC(=O)NCCc1ccccc1)C(=O)NC(CC(=O)O)C(=O)CNS(=O)(=O)CCc1ccccc1 (stereo not shown)
[IV] CC(C)C(CC(=O)NCCn1cnc2ccccc21)C(=O)NC(C=O)CC(=O)O (stereo not shown)
Ask: Please rank these compounds by IC50 in descending order. // format: requested-order list of labels
Result: IV, III, I, II
(IV: 32.5 µM, III: 9.02 µM, I: 4.43 µM, II: 1.24 µM)

###

Target or system ICE (Homo sapiens, UniProt P29466); recorded quantity Ki.
Readout Label: Ki (nM)

CCOC1OC(=O)CC1NC(=O)C(CC(=O)NCCc1c[nH]c2ccc(F)cc12)C(C)C (stereo not shown) = 18.5

[A] CC(C)C(CC(=O)NCCCc1ccc2ccccc2n1)C(=O)NC(CC(=O)O)C(=O)CNS(=O)(=O)CC12CCC(CC1=O)C2(C)C (stereo not shown)
[B] CC(C)C(CC(=O)NCCn1ncc2ccccc21)C(=O)NC(C=O)CC(=O)O (stereo not shown)
[C] CC(CC(=O)NCCc1ccccc1)C(=O)NC(CC(=O)O)C(=O)CNS(=O)(=O)CCc1ccccc1 (stereo not shown)
Ask: Arrange items by their Ki values in increasing order. Please list the labels in the order you were asked to rank them.
Result: A, B, C
(A: 17.5 nM, B: 33.2 nM, C: 1600 nM)

###

Biological target: UniProt:P29466
Readout Label: IC50 (µM)

[P] CCOC1OC(=O)CC1NC(=O)C(CC(=O)NCCc1ccccc1)C(C)C (stereo not shown)
[Q] CC(C)C(CC(=O)N(C)CCOc1ccccc1)C(=O)NC(C=O)CC(=O)O (stereo not shown)
[R] CC(C)C(CC(=O)NCCc1ccccc1)C(=O)NC(CC(=O)O)C(=O)CNS(=O)(=O)CCc1ccccc1 (stereo not shown)
Ask: Please arrange the 3 molecules above from largest to smallest IC50 value. The reply should contain the labels ordered as requested.
Result: P, R, Q

###

Target: ICE (Homo sapiens, UniProt P29466)
Sequence (P29466 120-297 limits assumed): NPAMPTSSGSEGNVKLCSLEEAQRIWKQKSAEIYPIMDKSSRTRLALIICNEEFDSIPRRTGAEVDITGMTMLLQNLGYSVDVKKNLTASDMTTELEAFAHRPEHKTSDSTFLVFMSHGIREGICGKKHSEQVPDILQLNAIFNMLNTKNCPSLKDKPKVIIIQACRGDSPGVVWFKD
Sequence (P29466 317-404 limits assumed): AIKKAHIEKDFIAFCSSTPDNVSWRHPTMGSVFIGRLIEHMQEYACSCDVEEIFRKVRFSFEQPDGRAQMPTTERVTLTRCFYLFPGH
pIC50: −log10 of the molar value. Counter-ions that a name gives are not always drawn.
Readout Label: pIC50

Recorded results for 5 compounds are shown here.
CC(C)C(CC(=O)NCCn1ncc2ccccc21)C(=O)NC(C=O)CC(=O)O (stereo not shown) = 7.25
CC(C)C(CC(N)=O)C(=O)NC(CC(=O)O)C(=O)CNS(=O)(=O)CC12CCC(CC1=O)C2(C)C (stereo not shown) = 6.10
CC(C)C(CC(=O)NCCOc1ccccc1)C(=O)NC(CC(=O)O)C(=O)CNS(=O)(=O)CC12CCC(CC1=O)C2(C)C (stereo not shown) = 7.28
CCOC1OC(=O)CC1NC(=O)C(CC(=O)NCCc1c[nH]c2ccccc12)C(C)C (stereo not shown) = 6.22
CCOC1OC(=O)CC1NC(=O)C(CC(=O)NCCc1c[nH]c2ccc(F)cc12)C(C)C (stereo not shown) = 6.31

[P] CC(C)C(CC(=O)NCCc1ccccc1)C(=O)NC(CC(=O)O)C(=O)CNS(=O)(=O)CC12CCC(CC1)C2(C)C (stereo not shown)
[Q] Cc1cc2ncn(CCNC(=O)CC(C(=O)NC(C=O)CC(=O)O)C(C)C)c2cc1C (stereo not shown) [Example 23, trifluoroacetate salt]
Ask: Could you kindly indicate whether P or Q has the higher pIC50 value? Respond with the label that goes with your answer.
Result: Q
(Q: 7.84, P: 5.97)

The values you see were collected from patent EP1082127B1.
